# TEST_SUMMARY: AUC (0 to 12 hrs) in rat at 5 mg/kg, iv by HPLC-MS analysis
# Format: ADME, organism-based
# Design: time < 12 hr, dose 5 mg/kg, route intravenous
# CONDITION_CONTEXT: plasma
PROPERTY_NAME: AUC(0-t) at 12 h (ng·h/mL)

| CPD_SMILES | PROPERTY_NAME | READING |
| --- | --- | --- |
| Cc1cc(=O)oc2c(Cl)c(OCCCCN3CCC(c4noc5cc(F)ccc45)CC3)ccc12 | AUC(0-t) at 12 h | 822 |

---

# TEST_SUMMARY: AUC (0 to 12 hrs) in rat at 12 mg/kg, po by HPLC-MS analysis
# Assay type: ADME, organism-based
# Design: time < 12 hr, dose 12 mg/kg, route oral
# CONDITION_CONTEXT: plasma
PROPERTY_NAME: AUC(0-t) at 12 h (ng·h/mL)

| CPD_SMILES | UNIT_SPEC | READING |
| --- | --- | --- |
| Cc1cc(=O)oc2c(Cl)c(OCCCCN3CCC(c4noc5cc(F)ccc45)CC3)ccc12 | ng·h/mL | 644 |

---

Data export: Ki values recorded with 5-hydroxytryptamine receptor 2C (Rattus norvegicus, UniProt P08909).
Sequence (P08909 whole entry): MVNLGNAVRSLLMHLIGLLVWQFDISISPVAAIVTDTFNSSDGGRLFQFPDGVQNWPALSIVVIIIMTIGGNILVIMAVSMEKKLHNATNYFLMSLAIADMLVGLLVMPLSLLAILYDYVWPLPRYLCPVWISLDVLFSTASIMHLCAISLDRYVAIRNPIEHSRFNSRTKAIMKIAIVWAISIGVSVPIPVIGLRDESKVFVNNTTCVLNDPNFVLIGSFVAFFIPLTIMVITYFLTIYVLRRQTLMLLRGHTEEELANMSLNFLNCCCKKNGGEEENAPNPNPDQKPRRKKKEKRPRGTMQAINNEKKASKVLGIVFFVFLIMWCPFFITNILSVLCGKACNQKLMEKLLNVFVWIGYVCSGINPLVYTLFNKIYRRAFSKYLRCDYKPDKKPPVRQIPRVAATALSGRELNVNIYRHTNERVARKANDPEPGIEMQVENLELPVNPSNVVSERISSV

| CPD_SMILES | Ki, nM |
| --- | --- |
| Cc1cc(=O)oc2c(Cl)c(OCCCCN3CCC(c4noc5cc(F)ccc45)CC3)ccc12 | 1700 |
| Cc1cc(=O)oc2cc(OCCCCN3CCC(c4noc5cc(F)ccc45)CC3)ccc12 | 11.9 |

---

# MEASURED_TARGET: D(2) dopamine receptor (Homo sapiens)
# Sequence (P14416 whole entry): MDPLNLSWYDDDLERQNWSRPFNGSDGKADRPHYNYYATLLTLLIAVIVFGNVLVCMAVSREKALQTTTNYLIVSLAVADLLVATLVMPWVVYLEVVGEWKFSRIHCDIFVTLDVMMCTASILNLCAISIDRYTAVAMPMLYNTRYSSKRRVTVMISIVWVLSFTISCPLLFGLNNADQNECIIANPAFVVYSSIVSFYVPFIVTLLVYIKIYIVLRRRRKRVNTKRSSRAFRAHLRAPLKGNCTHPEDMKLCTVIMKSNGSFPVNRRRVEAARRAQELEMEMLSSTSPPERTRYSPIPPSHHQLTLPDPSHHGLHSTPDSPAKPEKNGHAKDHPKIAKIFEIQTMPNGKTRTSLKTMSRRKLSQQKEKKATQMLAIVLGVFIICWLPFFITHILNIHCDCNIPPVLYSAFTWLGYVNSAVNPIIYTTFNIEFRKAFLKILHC
pKi: −log10 of the molar value.
pKi reference

| CPD_SMILES | pKi |
| --- | --- |
| COc1ccccc1N1CCN(CCCOc2ccc3c(C)cc(=O)oc3c2)CC1 | 7.93 |
| Cc1cc(=O)oc2cc(OCCCN3CCN(c4ccccc4)CC3)ccc12 | 7.97 |

---

Data export: pKi values recorded with 5-hydroxytryptamine receptor 2A (Rattus norvegicus).
Sequence (P14842 whole entry): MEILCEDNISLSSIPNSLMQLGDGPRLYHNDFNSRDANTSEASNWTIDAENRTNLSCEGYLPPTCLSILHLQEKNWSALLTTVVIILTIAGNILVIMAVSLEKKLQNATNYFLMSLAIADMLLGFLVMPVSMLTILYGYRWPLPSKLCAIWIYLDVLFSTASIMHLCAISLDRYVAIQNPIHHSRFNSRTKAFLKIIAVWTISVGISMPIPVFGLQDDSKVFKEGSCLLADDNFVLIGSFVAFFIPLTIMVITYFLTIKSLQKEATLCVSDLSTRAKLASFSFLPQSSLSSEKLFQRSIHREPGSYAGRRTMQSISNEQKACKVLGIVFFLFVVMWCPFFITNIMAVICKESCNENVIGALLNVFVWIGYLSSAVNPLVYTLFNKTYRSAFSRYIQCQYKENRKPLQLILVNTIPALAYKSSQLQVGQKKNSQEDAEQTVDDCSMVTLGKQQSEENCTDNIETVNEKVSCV
pKi: −log10 of the molar value.
PROPERTY_NAME: pKi

| CPD_SMILES | RELATION_SIGN | READING |
| --- | --- | --- |
| Cc1cc(=O)oc2cc(OCCCCN3CCN(c4nsc5ccccc45)CC3)ccc12 | = | 6.98 |
| O=c1ccc2ccc(OCCCCN3CCC(c4noc5cc(F)ccc45)CC3)cc2o1 | = | 5.84 |
| COc1ccccc1N1CCN(CCCCOc2ccc3c(C)cc(=O)oc3c2C)CC1 | = | 6.03 |
| COc1ccccc1N1CCN(CCCCOc2ccc3c(-c4ccccc4)cc(=O)oc3c2)CC1 | < | 5.00 |
| COc1cccc(N2CCN(CCCCOc3ccc4c(C)cc(=O)oc4c3)CC2)c1 | = | 6.33 |
| COc1ccccc1N1CCN(CCCCOc2ccc3c(CO)cc(=O)oc3c2)CC1 | < | 5.00 |
| Cc1cc(=O)oc2cc(OC/C=C/CN3CCC(c4noc5cc(F)ccc45)CC3)ccc12 | = | 9.30 |
| Cc1cc(=O)oc2c(C)c(OCCCCN3CCC(c4noc5cc(F)ccc45)CC3)ccc12 | = | 9.05 |
| COc1ccc(N2CCN(CCCCOc3ccc4c(C)cc(=O)oc4c3)CC2)cc1 | = | 5.99 |
| CCCc1cc(=O)oc2cc(OCCCCN3CCC(c4noc5cc(F)ccc45)CC3)ccc12 | = | 7.51 |

---

# MEASURED_TARGET: 5-hydroxytryptamine receptor 1A (Rattus norvegicus, UniProt P19327)
# Sequence (P19327 whole entry): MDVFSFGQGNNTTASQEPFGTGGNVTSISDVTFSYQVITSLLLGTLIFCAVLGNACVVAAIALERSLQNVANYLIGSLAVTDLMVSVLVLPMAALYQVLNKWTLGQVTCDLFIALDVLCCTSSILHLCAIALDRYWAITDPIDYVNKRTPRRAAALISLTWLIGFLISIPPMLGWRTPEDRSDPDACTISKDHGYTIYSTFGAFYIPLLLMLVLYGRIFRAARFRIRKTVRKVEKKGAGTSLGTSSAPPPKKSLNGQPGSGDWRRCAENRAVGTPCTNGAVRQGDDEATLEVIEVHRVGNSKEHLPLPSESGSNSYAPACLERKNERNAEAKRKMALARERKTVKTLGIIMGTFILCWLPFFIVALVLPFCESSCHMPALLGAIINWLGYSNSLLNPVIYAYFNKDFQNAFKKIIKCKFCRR
For each record, check the reported Ki: if it is below 200 nM write true (1), else write false (0).

| CPD_SMILES | CLASS_NAME |
| --- | --- |
| O=c1cc(C(F)(F)F)c2ccc(OCCCCN3CCC(c4noc5cc(F)ccc45)CC3)cc2o1 | true (1) |
| Cc1cc(=O)oc2cc(OCCCCN3CCC(c4nc5ccccc5o4)CC3)ccc12 | false (0) |
| Cc1cc(=O)oc2cc(OCCCCN3CCC(C(=O)c4ccc(F)cc4)CC3)ccc12 | true (1) |
| Cc1cc(=O)oc2cc(OC/C=C/CN3CCC(c4noc5cc(F)ccc45)CC3)ccc12 | true (1) |
| COc1ccccc1N1CCN(CCCCOc2ccc3ccc(=O)oc3c2)CC1 | false (0) |
| Cc1cc(=O)oc2cc(OCCCCN3CCC(c4noc5cc(F)ccc45)CC3)ccc12 | true (1) |

---

# MEASURED_TARGET: 5-hydroxytryptamine receptor 1A (Homo sapiens, UniProt P08908)
# Sequence (P08908 whole entry): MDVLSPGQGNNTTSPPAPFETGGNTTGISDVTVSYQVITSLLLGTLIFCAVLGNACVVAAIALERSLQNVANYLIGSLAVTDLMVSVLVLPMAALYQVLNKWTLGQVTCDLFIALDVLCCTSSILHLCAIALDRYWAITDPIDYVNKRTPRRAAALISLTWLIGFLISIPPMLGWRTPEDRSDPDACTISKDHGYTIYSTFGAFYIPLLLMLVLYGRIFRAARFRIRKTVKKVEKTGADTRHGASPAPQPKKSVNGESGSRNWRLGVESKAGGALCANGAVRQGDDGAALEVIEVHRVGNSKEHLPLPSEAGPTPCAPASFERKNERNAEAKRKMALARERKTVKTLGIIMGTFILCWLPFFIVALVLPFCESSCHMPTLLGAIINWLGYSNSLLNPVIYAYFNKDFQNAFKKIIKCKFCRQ
PROPERTY_NAME: IC50 (nM)

| CPD_SMILES | READING |
| --- | --- |
| Cc1cc(=O)oc2c(Cl)c(OCCCCN3CCC(c4noc5cc(F)ccc45)CC3)ccc12 | 11.8 |

---

pKi: −log10 of the molar value.
Data export: pKi values recorded with D(3) dopamine receptor (Rattus norvegicus, UniProt P19020).
Sequence (P19020 whole entry): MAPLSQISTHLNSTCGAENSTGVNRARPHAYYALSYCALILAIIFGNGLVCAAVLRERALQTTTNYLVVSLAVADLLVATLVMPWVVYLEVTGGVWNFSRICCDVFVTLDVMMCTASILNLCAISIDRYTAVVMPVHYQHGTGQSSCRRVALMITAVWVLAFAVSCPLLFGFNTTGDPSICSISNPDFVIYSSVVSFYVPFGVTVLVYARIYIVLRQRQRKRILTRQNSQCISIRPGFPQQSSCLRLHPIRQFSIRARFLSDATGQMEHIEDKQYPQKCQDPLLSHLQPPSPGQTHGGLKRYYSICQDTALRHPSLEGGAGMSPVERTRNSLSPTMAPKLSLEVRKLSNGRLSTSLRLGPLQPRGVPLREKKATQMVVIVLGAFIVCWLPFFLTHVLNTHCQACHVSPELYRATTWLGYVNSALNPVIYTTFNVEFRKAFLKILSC

| CPD_SMILES | pKi |
| --- | --- |
| Cc1c(C)c2ccc(OCCCCN3CCC(c4noc5cc(F)ccc45)CC3)cc2oc1=O | 7.51 |
| Cc1cc(=O)oc2c(Cl)c(OCCCCN3CCC(c4noc5cc(F)ccc45)CC3)ccc12 | 8.37 |
| O=c1cc(-c2ccccc2)c2ccc(OCCCCN3CCC(c4noc5cc(F)ccc45)CC3)cc2o1 | 7.14 |

---

# MEASURED_TARGET: 5-hydroxytryptamine receptor 1A (Homo sapiens, UniProt P08908)
pKi: −log10 of the molar value.

| CPD_SMILES | pKi |
| --- | --- |
| Cc1cc(=O)oc2cc(OCCCN3CCN(c4ccccc4)CC3)ccc12 | 9.10 |

---

log10 Ki reference
# MEASURED_TARGET: Adrenergic receptor alpha-2 (Rattus norvegicus, UniProt P22086+P19328+P22909)
# Sequence (P22086 whole entry): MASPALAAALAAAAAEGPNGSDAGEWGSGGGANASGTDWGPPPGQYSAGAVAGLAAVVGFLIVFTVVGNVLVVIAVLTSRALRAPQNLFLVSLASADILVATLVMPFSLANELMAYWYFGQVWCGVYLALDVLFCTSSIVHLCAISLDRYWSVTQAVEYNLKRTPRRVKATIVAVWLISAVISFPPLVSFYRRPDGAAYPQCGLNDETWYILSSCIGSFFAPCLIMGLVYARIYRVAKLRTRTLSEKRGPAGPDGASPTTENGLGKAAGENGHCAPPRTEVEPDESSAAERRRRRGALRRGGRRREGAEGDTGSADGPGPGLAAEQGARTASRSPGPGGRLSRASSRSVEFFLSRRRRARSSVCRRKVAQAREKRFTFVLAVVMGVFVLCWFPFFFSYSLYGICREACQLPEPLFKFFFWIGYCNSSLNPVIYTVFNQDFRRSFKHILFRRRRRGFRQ
# Sequence (P19328 whole entry): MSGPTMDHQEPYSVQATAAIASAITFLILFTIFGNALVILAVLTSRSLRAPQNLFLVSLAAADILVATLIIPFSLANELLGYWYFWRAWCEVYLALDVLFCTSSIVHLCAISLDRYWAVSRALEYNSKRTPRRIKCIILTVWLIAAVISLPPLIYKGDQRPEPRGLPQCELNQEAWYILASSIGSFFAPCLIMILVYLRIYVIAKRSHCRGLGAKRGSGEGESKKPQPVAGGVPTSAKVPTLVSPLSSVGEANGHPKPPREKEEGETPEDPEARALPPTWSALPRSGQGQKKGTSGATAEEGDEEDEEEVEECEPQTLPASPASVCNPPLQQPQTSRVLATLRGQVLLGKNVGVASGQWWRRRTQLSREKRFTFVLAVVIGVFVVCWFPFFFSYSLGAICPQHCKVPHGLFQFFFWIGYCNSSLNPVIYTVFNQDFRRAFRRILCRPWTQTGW
# Sequence (P22909 whole entry): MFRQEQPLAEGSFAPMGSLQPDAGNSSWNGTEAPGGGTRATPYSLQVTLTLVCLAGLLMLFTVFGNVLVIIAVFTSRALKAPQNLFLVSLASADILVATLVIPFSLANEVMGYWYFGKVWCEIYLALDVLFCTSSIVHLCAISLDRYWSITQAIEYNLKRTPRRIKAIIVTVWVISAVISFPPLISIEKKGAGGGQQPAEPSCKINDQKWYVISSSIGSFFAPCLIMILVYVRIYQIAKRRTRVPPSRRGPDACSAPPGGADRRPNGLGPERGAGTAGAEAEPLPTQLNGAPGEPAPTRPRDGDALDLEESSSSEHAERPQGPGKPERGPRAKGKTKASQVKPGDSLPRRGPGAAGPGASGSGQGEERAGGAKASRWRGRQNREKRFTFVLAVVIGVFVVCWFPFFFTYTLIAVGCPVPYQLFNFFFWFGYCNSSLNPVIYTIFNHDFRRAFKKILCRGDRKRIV
PROPERTY_NAME: log10 Ki (log10 of the value in nM)

| CPD_SMILES | PROPERTY_NAME | READING |
| --- | --- | --- |
| Cc1c(C)c2ccc(OCCCCN3CCC(c4noc5cc(F)ccc45)CC3)cc2oc1=O | log10 Ki | 2.09 |
| COc1ccccc1N1CCN(CCCCOc2ccc3c(C)cc(=O)oc3c2)CC1 | log10 Ki | 1.94 |
| Cc1cc(=O)oc2c(C)c(OCCCCN3CCC(c4noc5cc(F)ccc45)CC3)ccc12 | log10 Ki | 2.78 |
| O=c1cc(-c2ccccc2)c2ccc(OCCCCN3CCC(c4noc5cc(F)ccc45)CC3)cc2o1 | log10 Ki | 1.67 |
| Cc1cc(=O)oc2cc(OCCCCN3CCC(c4noc5cc(F)ccc45)CC3)ccc12 | log10 Ki | 2.20 |
| Cc1cc(=O)oc2c(Cl)c(OCCCCN3CCC(c4noc5cc(F)ccc45)CC3)ccc12 | log10 Ki | 1.19 |
